Taken from the supplement of paper PMC10307832.

Catalogue of relative viability readings, one per entry.
- Test system: NCI-H1792
- assay-protocol: relative viability (nuclei count vs DMSO), 5 days (fraction); higher = more cells survive
- experimental-context: first compound 0.1265 µM

Clc1ccc(Nc2nnc(Cc3ccncc3)c3ccccc23)cc1 [Vatalanib] + C[C@]1(O)C[C@@H](c2nc(-c3ccc4ccc(-c5ccccc5)nc4c3)c3c(N)nccn32)C1 [Linsitinib] (partner 1 µM) : 0.494

Endpoint output: relative viability of COc1cc(N2CCC(C(N)=O)CC2)ccc1Nc1nc(N)c(Cl)c(Nc2ccccc2S(=O)(=O)C(C)C)n1 [HG-5-88-01] + C[C@@H](Oc1cc(-c2cnn(C3CCNCC3)c2)cnc1N)c1c(Cl)ccc(F)c1Cl [Crizotinib] (partner 1 µM) . Value?
0.968
